System: immortalized murine embryonic fibroblasts (Mef)
TEST_DESCRIPTION: Pooled negative selection RNAi screening (deep sequencing)
Assay type: cell-based
TEST_SETTINGS: deep sequencing reads, on dox compared to initial representation
ATTRIBUTE_MEASURED: Fold depletion in Mef (Fold)

>>> result_number("Mgst1.549: shRNA, SEQ ID NO: 142 (nucleic acid) TGCTGTTGACAGTGAGCGCAAGGAGCAGACTGTACTTGTATAGTGAAGCCACAGATGTATACAAGTACAGTCTGCTCCTTATGCCTACTGCCTCGGA")
1.09
>>> result_number("Cdc42ep3.1922: shRNA, SEQ ID NO: 104 (nucleic acid) TGCTGTTGACAGTGAGCGCAACAAGCAAGGTATTACTGTATAGTGAAGCCACAGATGTATACAGTAATACCTTGCTTGTTTTGCCTACTGCCTCGGA")
0.38
>>> result_number("Nrp1.2022: shRNA, SEQ ID NO: 154 (nucleic acid) TGCTGTTGACAGTGAGCGACACAAGGTTCATCAGGATCTATAGTGAAGCCACAGATGTATAGATCCTGATGAACCTTGTGGTGCCTACTGCCTCGGA")
1.80
>>> result_number("Kit.4813: neutral control shRNA, SEQ ID NO: 197 (nucleic acid) TGCTGTTGACAGTGAGCGATTGGATATTCTTGAAAGTTTATAGTGAAGCCACAGATGTATAAACTTTCAAGAATATCCAAGTGCCTACTGCCTCGGA")
0.84
